Target: BCL6 (Homo sapiens)
Construct: HiBiT-tag knocked into endogenous BCL6 locus using CRISPR; endogenous in cells; host or cells: DHL-4_BCL6_HiBiT cells (CRISPR knock-in)
Assay: BCL6_HiBiT degradation assay (2 h)
Format: cell-based
Settings: DHL-4_BCL6_HiBiT cells, read-out: YCon (% remaining maximal effect)
Percent BCL6 remaining at maximal degradation (Ycon) for assorted compounds

State its Percent BCL6 remaining at maximal degradation (Ycon): CN1C(=O)Cc2cc(Nc3nc(N4CC[C@@H](Nc5ccc6c(C7CCC(=O)NC7=O)nn(C)c6c5)[C@@H](F)C4)ncc3Cl)ccc21 (stereo partly drawn) [Example 44]
> 60%

New cases:
State its Percent BCL6 remaining at maximal degradation (Ycon): CN1C(=O)Cc2cc(Nc3nc(N4CC[C@H](Nc5ccc6c(C7CCC(=O)NC7=O)nn(C)c6c5)C(F)(F)C4)ncc3Cl)ccc21 (stereo partly drawn) [Example 67]
20 to 60%

State its Percent BCL6 remaining at maximal degradation (Ycon): Cn1nc(C2CCC(=O)NC2=O)c2ccc(C3CCN(c4ncc(Cl)c(Nc5ccc6c(c5)CC(=O)N6)n4)CC3)cc21 (stereo not drawn) [Example 124]
> 60%

State its Percent BCL6 remaining at maximal degradation (Ycon): CNCCN1C(=O)Cc2cc(Nc3nc(N4CC[C@@H](Nc5ccc6c([C@@H]7CCC(=O)NC7=O)nn(C)c6c5)[C@H](C)C4)ncc3Cl)ccc21 (single isomer, unassigned) [Example 106]
< 20%

State its Percent BCL6 remaining at maximal degradation (Ycon): CO[C@@H]1CN(c2ncc(Cl)c(Nc3ccc4c(c3)CC(=O)N4C)n2)CC[C@H]1Nc1ccc2c(N3CCC(=O)NC3=O)nn(C)c2c1 [Example 156]
20 to 60%

State its Percent BCL6 remaining at maximal degradation (Ycon): CN1C(=O)Cc2cc(Nc3nc(N(C)[C@H]4C[C@H]5CC[C@@H](C4)N5c4ccc5c(C6CCC(=O)NC6=O)nn(C)c5c4)ncc3Cl)ccc21 (stereo partly drawn) [Example 16]
20 to 60%

----------
Percent BCL6 remaining at maximal degradation (Ycon) for assorted compounds
Biological target: BCL6 (Homo sapiens, UniProt P41182)
Construct: HiBiT-tag knocked into endogenous BCL6 locus using CRISPR; endogenous in cells; host or cells: DHL-4_BCL6_HiBiT cells (CRISPR knock-in)
Test: BCL6_HiBiT degradation assay (2 h)
Type: cell-based
Details: DHL-4_BCL6_HiBiT cells, read-out: YCon (% remaining maximal effect)

Solved cases (4 shown):
State its Percent BCL6 remaining at maximal degradation (Ycon): C[C@@H]1CN(c2ccc3c(C4CCC(=O)NC4=O)nn(C)c3c2)C[C@@H](C)N1c1ncc(Cl)c(Nc2ccc3c(c2)CC(=O)N3C)n1 (stereo partly drawn) [Example 28]
> 60%

State its Percent BCL6 remaining at maximal degradation (Ycon): CN1C(=O)Cc2cc(Nc3nc(N4CC[C@@H](Nc5ccc6c(C7CCC(=O)NC7=O)nn(C)c6c5)[C@H](F)C4)ncc3Cl)ccc21 (stereo partly drawn) [Example 45]
20 to 60%

State its Percent BCL6 remaining at maximal degradation (Ycon): Cn1nc(C2CCC(=O)NC2=O)c2ccc(NC3CCN(c4ncc(Cl)c(Nc5ccc6c(c5)CC(=O)N6CCO)n4)CC3)cc21 (stereo not drawn) [Example 41]
20 to 60%

State its Percent BCL6 remaining at maximal degradation (Ycon): CN1C(=O)Cc2cc(Nc3nc(N(C)C4CCN(c5cc6c(cn5)c(C5CCC(=O)NC5=O)nn6C)CC4)ncc3Cl)ccc21 (stereo not drawn) [Example 60]
> 60%

New cases:
State its Percent BCL6 remaining at maximal degradation (Ycon): CO[C@@H]1CN(c2ncc(Cl)c(Nc3ccc4c(c3)CC(=O)N4C)n2)CC[C@H]1Nc1ccc2c(C3CCC(=O)NC3=O)nn(C)c2c1 (stereo partly drawn) [Example 146]
20 to 60%

State its Percent BCL6 remaining at maximal degradation (Ycon): C[C@@H]1CN(c2ncc(Cl)c(Nc3ccc4c(c3)CC(=O)N4)n2)CC[C@H]1Nc1ccc2c(C3CCC(=O)NC3=O)nn(C)c2c1 (stereo partly drawn) [Example 114]
< 20%

State its Percent BCL6 remaining at maximal degradation (Ycon): CN1C(=O)Cc2cc(Nc3nc(N4CCC(Nc5ccc6c(C7CCC(=O)NC7=O)nn(C)c6c5)CC45CCC5)ncc3Cl)ccc21 (stereo not drawn) [Example 1]
20 to 60%

State its Percent BCL6 remaining at maximal degradation (Ycon): C[C@@H]1CN(c2ncc(Cl)c(Nc3cc(F)c4c(c3)CC(=O)N4C)n2)CC[C@H]1Nc1ccc2c([C@@H]3CCC(=O)NC3=O)nn(C)c2c1 (single isomer, unassigned) [Example 97]
< 20%

State its Percent BCL6 remaining at maximal degradation (Ycon): C[C@@H]1CN(c2ncc(Cl)c(Nc3ccc4c(c3)CC(=O)N4C)n2)C[C@@H](C)N1c1ccc2c([C@H]3CCC(=O)NC3=O)nn(C)c2c1 (single isomer, unassigned) [Example 79]
20 to 60%
